# tested system: BTK (Homo sapiens, UniProt Q06187)
# Construct: purchased Promega
# Sequence (Q06187 whole entry): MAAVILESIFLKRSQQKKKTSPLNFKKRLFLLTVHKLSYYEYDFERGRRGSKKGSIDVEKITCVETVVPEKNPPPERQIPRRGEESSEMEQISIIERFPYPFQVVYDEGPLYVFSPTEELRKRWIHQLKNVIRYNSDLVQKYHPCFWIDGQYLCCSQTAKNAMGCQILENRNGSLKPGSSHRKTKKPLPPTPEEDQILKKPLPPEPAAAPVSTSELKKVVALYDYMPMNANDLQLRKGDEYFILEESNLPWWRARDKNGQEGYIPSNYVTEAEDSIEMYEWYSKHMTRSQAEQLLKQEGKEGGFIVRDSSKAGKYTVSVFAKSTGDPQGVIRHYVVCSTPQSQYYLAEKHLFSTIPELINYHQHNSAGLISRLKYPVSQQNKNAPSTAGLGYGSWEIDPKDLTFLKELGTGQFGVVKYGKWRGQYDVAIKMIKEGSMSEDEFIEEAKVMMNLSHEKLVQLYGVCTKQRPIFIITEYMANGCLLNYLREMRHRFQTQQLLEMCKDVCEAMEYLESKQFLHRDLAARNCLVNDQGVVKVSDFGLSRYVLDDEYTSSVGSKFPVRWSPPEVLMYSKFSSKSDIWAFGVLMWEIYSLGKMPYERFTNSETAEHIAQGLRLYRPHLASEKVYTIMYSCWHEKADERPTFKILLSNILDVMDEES
# assay comment: BTK inhibitory activity, ADP-Glo + BTK Kinase enzyme system kit (Promega)
# Type: biochemical
# condition notes: BTK enzyme 1 ng/uL, ATP 10 uM, 15 min preincubation, luminescence, duplicate
parameter: IC50 (µM)

{"columns": ["compound", "unit abbrev", "IC50"],
 "data": [
  ["C=CC(=O)N1CCC[C@@H](n2nc(C(=O)Nc3nc4ccc(Br)cc4o3)c3c(N)nccc32)C1 [Example 73]", "µM", 0.032]
]}

a = C=CC(=O)N1CCCC(n2nc(-c3ccc(Oc4ccccc4)cc3)c3c(N)ncc(Cc4ccccc4)c32)C1 (stereo not shown) [Example 6]
b = C=CC(=O)N1CC2CC1[C@H](n1nc(-c3ccc(C(=O)Nc4ccccn4)cc3F)c3c(N)nccc31)C2 (stereo partly shown) [Example 51]
c = C=CC(=O)N1CCC[C@@H](n2nc(C(=O)OC(C)(C)C)c3c(N)nccc32)C1 [Example 72]
d = C#CC(=O)N1CCCC(n2nc(-c3ccc(Oc4ccccc4)cc3)c3c(N)nccc32)C1 (stereo not shown) [Example 2]
e = C=CC(=O)N1CCC[C@@H](n2nc(-c3ccc(C(=O)Nc4ccccc4)cc3)c3c(N)ncc(Cl)c32)C1 [Example 23]
Challenge: Arrange by IC50, high to low. Give the labels in the order requested.
Response given: c, a, d, e, b

---

pIC50: −log10 of the molar value.
pIC50, BTK (Homo sapiens): measured values
parameter: pIC50

I = C=CC(=O)N1CCC[C@@H](n2nc(-c3ccc(C(=O)Nc4ccccc4)cc3)c3c(N)ncc(-c4cnn(C)c4)c32)C1
II = C=CC(=O)N1CC(n2nc(-c3ccc(C(=O)Nc4ccccn4)cc3F)c3c(N)nccc32)C1
III = C=CC(=O)N1CCCC(n2nc(-c3ccc(Oc4ccccc4)cc3)c3c(N)ncc(-c4ccccc4)c32)C1 (stereo not shown)
IV = C=CC(=O)N1CCC[C@@H](n2nc(-c3ccc(C(=O)Nc4ccccn4)cc3OC)c3c(N)nccc32)C1
Challenge: Reorder: pIC50, max to min. Give the labels in the order requested.
Response given: IV, II, I, III
(IV: 9.30, II: 8.80, I: 8.57, III: 7.94)

a = C=CC(=O)N1CCC[C@@H](n2nc(C(=O)Nc3nc4cc(Cl)ccc4o3)c3c(N)ncc(Cl)c32)C1
b = C=CC(=O)N1CCC[C@@H](n2nc(-c3ccc(C(=O)Nc4ccccc4)cc3)c3c(N)ncc(-c4ccsc4)c32)C1
Challenge: Of a and b , whose reported pIC50 is numerically smaller? Write down the label of the entry you select.
Response given: b
(b: 7.80, a: 8.48)

---

# tested system: BTK (Homo sapiens, UniProt Q06187)
parameter: IC50 (nM)

Answered cases to consult:
{"columns": ["molecule", "tested system", "unit abbrev", "IC50"],
 "data": [
  ["C=CC(=O)N1CCC(n2nc(-c3ccc(Oc4ccccc4)cc3)c3c(N)nccc32)CC1", "BTK (Homo sapiens, UniProt Q06187)", "nM", 2.7],
  ["C=CC(=O)N1CCCC(n2nc(-c3ccc(Oc4ccccc4)cc3)c3c(N)ncc(Cl)c32)C1 (stereo not shown)", "BTK (Homo sapiens, UniProt Q06187)", "nM", 1.5],
  ["C=CC(=O)N1CCCC(n2nc(-c3ccc(Oc4ccccc4)cc3)c3c(N)ncc(-c4cnn(C)c4)c32)C1 (stereo not shown)", "BTK (Homo sapiens, UniProt Q06187)", "nM", 3],
  ["C=CC(=O)N1CCC[C@@H](n2nc(-c3ccc(C(=O)Nc4ccccc4)cc3)c3c(N)ncc(Br)c32)C1", "BTK (Homo sapiens, UniProt Q06187)", "nM", 1.2],
  ["C=CC(=O)N1CCC[C@@H](n2nc(C(=O)Nc3ccc4c(c3)OCCO4)c3c(N)ncc(Cl)c32)C1", "BTK (Homo sapiens, UniProt Q06187)", "nM", 100]
]}

I = C=CC(=O)N1CCC[C@@H](n2nc(-c3ccc(C(=O)Nc4ccccc4)cc3)c3c(N)ncc(-c4cnn(CCN(C)C)c4)c32)C1
II = C=CC(=O)N1CCC[C@@H](n2nc(-c3ccc(C(=O)Nc4ccccn4)cc3)c3c(N)ncc(C)c32)C1
Challenge: Of I and II , whose reported IC50 is numerically smaller? Write down the label of the entry you select.
Response given: I

a = C=CC(=O)N1CCC[C@@H](n2nc(C(=O)Nc3nc4cc(F)ccc4o3)c3c(N)ncc(Cl)c32)C1
b = C=CC(=O)N1CCC[C@@H](n2nc(C(=O)Nc3nc4ccccc4o3)c3c(N)ncc(Cl)c32)C1
Challenge: Of a and b , whose reported IC50 is numerically smaller? Write down the label of the entry you select.
Response given: a
(a: 1.5 nM, b: 2.2 nM)

---

Sequence of the target: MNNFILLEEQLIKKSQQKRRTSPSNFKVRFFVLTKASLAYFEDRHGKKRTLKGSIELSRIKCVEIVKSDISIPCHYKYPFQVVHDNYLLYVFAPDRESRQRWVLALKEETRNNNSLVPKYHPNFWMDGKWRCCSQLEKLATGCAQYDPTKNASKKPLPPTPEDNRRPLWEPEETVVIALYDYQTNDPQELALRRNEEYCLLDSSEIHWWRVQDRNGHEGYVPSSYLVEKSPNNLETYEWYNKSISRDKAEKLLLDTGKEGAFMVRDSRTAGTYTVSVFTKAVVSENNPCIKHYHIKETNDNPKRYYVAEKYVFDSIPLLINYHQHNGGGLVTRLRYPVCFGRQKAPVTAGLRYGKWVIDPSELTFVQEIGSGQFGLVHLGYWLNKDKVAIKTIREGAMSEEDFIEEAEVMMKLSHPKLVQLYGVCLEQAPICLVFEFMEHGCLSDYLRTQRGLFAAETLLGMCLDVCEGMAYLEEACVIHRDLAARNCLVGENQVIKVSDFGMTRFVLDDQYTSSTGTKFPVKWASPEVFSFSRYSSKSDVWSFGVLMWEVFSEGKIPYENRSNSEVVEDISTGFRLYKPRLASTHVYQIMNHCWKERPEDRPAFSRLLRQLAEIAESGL
parameter: IC50 (nM)

P = C=CC(=O)N1CCC[C@@H](n2nc(C(=O)Nc3nc4cc(Cl)ccc4o3)c3c(N)nccc32)C1
Q = C=CC(=O)N1CCC[C@@H](n2nc(-c3ccc(C(=O)Nc4ccccn4)cc3Cl)c3c(N)ncc(-c4cnn(C)c4)c32)C1
R = C=CC(=O)N1CCC[C@@H](n2nc(-c3ccc(C(=O)Nc4ccccc4)cc3)c3c(N)ncc(-c4cnn(CCN5CCCC5)c4)c32)C1
S = C=CC(=O)N1CCC[C@@H](n2nc(-c3ccc(C(=O)Nc4ccccc4)cc3)c3c(N)ncc(-c4cn[nH]c4)c32)C1
Challenge: Reorder: IC50, max to min. Give the labels in the order requested.
Response given: S, R, P, Q

---

# tested system: UniProtKB Q08881
# Sequence (Q08881 1-620): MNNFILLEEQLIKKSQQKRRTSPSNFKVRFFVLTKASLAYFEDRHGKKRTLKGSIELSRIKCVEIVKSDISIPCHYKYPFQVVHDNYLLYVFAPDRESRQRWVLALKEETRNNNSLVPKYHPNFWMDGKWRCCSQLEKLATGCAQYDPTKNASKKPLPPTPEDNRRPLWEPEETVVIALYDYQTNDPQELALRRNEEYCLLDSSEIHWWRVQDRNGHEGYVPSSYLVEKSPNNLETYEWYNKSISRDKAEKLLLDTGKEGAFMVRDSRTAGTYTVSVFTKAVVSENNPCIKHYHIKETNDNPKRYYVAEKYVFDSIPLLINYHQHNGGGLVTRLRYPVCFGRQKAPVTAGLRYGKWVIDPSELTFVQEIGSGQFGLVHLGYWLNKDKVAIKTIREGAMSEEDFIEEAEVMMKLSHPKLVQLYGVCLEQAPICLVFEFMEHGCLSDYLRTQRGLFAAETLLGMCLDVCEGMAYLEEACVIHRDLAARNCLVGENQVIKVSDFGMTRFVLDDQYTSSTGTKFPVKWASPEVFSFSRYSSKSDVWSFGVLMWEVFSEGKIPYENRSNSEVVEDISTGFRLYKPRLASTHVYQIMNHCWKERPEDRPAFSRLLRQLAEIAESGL
pIC50: −log10 of the molar value.
parameter: pIC50

Answered cases to consult:
{"columns": ["compound", "reported"],
 "data": [
  ["C=CC(=O)N1CCCC(n2nc(-c3ccc(Oc4ccccc4)cc3)c3c(N)ncc(I)c32)C1 (stereo not shown)", 7.71],
  ["C=CC(=O)N1CCC[C@@H](n2nc(-c3ccc(C(=O)Nc4ccccc4)cc3)c3c(N)ncc(-c4ccsc4)c32)C1", 6.43],
  ["C=CC(=O)N1CCC[C@@H](n2nc(-c3ccc(C(=O)Nc4cc(F)ccn4)cc3)c3c(N)nccc32)C1", 8.00],
  ["C=CC(=O)N1CCC[C@@H](n2nc(-c3ccc(C(=O)Nc4ccccn4)cc3F)c3c(N)ncc(Cl)c32)C1", 8.48]
]}

P = C=CC(=O)N1CCC[C@@H](n2nc(-c3ccc(C(=O)Nc4ccccn4)cc3F)c3c(N)ncc(I)c32)C1
Q = C=CC(=O)N1CCC[C@@H](n2nc(C(=O)Nc3nc4cc(Cl)ccc4o3)c3c(N)ncc(Cl)c32)C1
Challenge: Of P and Q , whose reported pIC50 is numerically smaller? Write down the label of the entry you select.
Response given: Q

I = C=CC(=O)N1CCC[C@@H](n2nc(-c3ccc(C(=O)Nc4ccccc4)cc3)c3c(N)ncc(-c4cnn(C)c4)c32)C1
II = C#CC(=O)N1CCCC(n2nc(-c3ccc(Oc4ccccc4)cc3)c3c(N)nccc32)C1 (stereo not shown)
III = C=CC(=O)N1CCC[C@@H](n2nc(-c3ccc(C(=O)Nc4ccccc4)cc3)c3c(N)ncc(-c4cnc(C)s4)c32)C1
IV = C=CC(=O)N1CCC[C@@H](n2nc(-c3ccc(C(=O)Nc4ccccc4)cc3)c3c(N)ncc(-c4cc[nH]n4)c32)C1 [Example 30]
Challenge: Order the entries by their reported pIC50, beginning at the minimum. Give the labels in the order requested.
Response given: IV, III, I, II
(IV: 6.31, III: 6.70, I: 7.23, II: 7.80)

I = C=CC(=O)N1CC(n2nc(-c3ccc(C(=O)Nc4ccccn4)cc3F)c3c(N)nccc32)C1
II = C=CC(=O)N1CCC[C@@H](n2nc(-c3ccc(C(=O)Nc4ccccn4)cc3Cl)c3c(N)ncc(CC)c32)C1
Challenge: Of I and II , whose reported pIC50 is numerically smaller? Write down the label of the entry you select.
Response given: I

I = C=CC(=O)N1CCC[C@@H](n2nc(-c3ccc(C(=O)Nc4ccccc4)cc3)c3c(N)ncc(-c4cnn(C(F)F)c4)c32)C1
II = C=CC(=O)N1CCC[C@@H](n2nc(-c3ccc(C(=O)Nc4ccccn4)cc3)c3c(N)ncc(C)c32)C1
III = C=CC(=O)N1CCC[C@@H](n2nc(-c3ccc(C(=O)Nc4ccccn4)cc3F)c3c(N)nccc32)C1
IV = C=CC(=O)N1CCC[C@@H](n2nc(-c3ccc(C(=O)Nc4ccccc4)cc3)c3c(N)ncc(-c4cc[nH]n4)c32)C1 [Example 29]
Challenge: Order the entries by their reported pIC50, beginning at the minimum. Give the labels in the order requested.
Response given: IV, I, II, III

I = C=CC(=O)N1CCC[C@@H](n2nc(-c3ccc(C(=O)Nc4ccccn4)cc3F)c3c(N)ncc(C#N)c32)C1
II = C=CC(=O)N1CCC[C@@H](n2nc(C(=O)Nc3ccccc3)c3c(N)ncc(Cl)c32)C1
Challenge: Of I and II , whose reported pIC50 is numerically smaller? Write down the label of the entry you select.
Response given: II

1 = C=CC(=O)N1CCC[C@@H](n2nc(-c3ccc(C(=O)Nc4ccccn4)cc3Cl)c3c(N)ncc(C=C)c32)C1
2 = C=CC(=O)N1CCC[C@@H](n2nc(-c3ccc(C(=O)Nc4ccccc4)cc3)c3c(N)ncc(Cl)c32)C1
Challenge: Of 1 and 2 , whose reported pIC50 is numerically smaller? Write down the label of the entry you select.
Response given: 2
(2: 7.32, 1: 8.54)

1 = C=CC(=O)N1CCC[C@@H](n2nc(C(=O)Nc3nc4ccc(Br)cc4o3)c3c(N)nccc32)C1
2 = C=CC(=O)N1CCC[C@@H](n2nc(C(=O)OC(C)(C)C)c3c(N)nccc32)C1
Challenge: Of 1 and 2 , whose reported pIC50 is numerically smaller? Write down the label of the entry you select.
Response given: 1
